As an illustration, consider measured IC50 for molecules on Aurora kinase B (Homo sapiens, UniProt Q96GD4).
Sequence (Q96GD4 whole entry): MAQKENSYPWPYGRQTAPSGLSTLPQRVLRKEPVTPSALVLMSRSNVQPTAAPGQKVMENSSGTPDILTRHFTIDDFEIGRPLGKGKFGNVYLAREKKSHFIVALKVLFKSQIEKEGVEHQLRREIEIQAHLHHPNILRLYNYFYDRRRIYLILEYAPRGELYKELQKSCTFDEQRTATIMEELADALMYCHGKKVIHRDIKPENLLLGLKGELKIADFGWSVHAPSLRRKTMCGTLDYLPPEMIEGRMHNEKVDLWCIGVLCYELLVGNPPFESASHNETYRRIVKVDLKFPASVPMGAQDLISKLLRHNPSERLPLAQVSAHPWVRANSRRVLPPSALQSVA
VALUE TYPE: IC50 (µM)

[1] COC(=O)c1cccc(-c2cn(-c3ccc(O)c(C(=O)Nc4cccc(C(F)(F)F)c4)c3)nn2)c1
[2] COC(=O)c1cccc(NC(=O)c2cc(-n3cc(-c4cc(OC)cc(OC)c4)nn3)ccc2O)c1
query: // returns 1 or 2 , whichever has the lower IC50 Your answer should be the label of the entry you select.
result: 2
(2: 3.58 µM, 1: 63.2 µM)
